protocol-summary: Tissue quantification of Om and As in tumor
Format: in vivo, BALB/c mice
assay-context: BALB/c, mouse, iv, 2 mg/kg
readout-type: MRT
Returns: string containing the numeric result and its unit.

Quick check: MRT of O=C1CCC[C@@H]2[C@H]3CCC[N+]4([O-])CCC[C@@H](CN12)[C@@H]34 (stereo partly shown) [Free Om, oxymatrine] ?
6.95 h
